As shown below, each of these variants has a reported aptazyme ON/OFF ratio value.
B1: Pistol ribozyme (parent)
chain: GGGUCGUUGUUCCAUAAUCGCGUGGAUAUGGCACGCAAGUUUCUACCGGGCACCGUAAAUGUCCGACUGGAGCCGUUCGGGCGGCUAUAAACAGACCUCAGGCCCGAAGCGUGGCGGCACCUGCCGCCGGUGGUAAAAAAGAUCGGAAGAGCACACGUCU

- Variants of: B1
- test details: aptazyme ON/OFF ratio, guanine; higher = stronger switching; co-transcriptional cleavage with and without guanine
Provide a numeric answer; units are not to be included.

## Task Sample U8G G9U U10C U11A C12A — what was its aptazyme ON/OFF ratio?
## Result 1.14

## Task Please look up its aptazyme ON/OFF ratio: U7A U8A G9C U11C C12G
## Result 1.1

## Task // returns reported aptazyme ON/OFF ratio for input U7G U8A G9A C12U C13G
## Result 1.1

## Task May I ask what aptazyme ON/OFF ratio has been recorded for U7G U11G C13A ?
## Result 1.06

## Task What does the record list as aptazyme ON/OFF ratio for U8A U10A U11G C13A ?
## Result 1.18

## Task What does the record list as aptazyme ON/OFF ratio for U8A G9C U10A U11C C12U C13G ?
## Result 1.15

## Task Could you tell me which aptazyme ON/OFF ratio is on file for U8C U10A C13U ?
## Result 1.05

## Task aptazyme ON/OFF ratio lookup needed for U7C U8A U10C U11C C12A C13A , thanks.
## Result 1.18
